B1: POU domain, class 3, transcription factor 2, residues 356 to 411; numbered along this chain, P20265 (parent)
chain: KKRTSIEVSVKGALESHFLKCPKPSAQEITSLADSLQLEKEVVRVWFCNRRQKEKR

# Variants of: B1
# testSummary: abundance fitness (aPCA) (normalised: wild type 0, dead -1); higher = more abundant; growth selection in yeast, the domain comes from the species named
# assayConditions: Homo sapiens
Below, each entry is listed alongside its reported abundance fitness.
property: abundance fitness

> print(dat)
    variantname  measvalue
 1         L32V     -0.303
 2         P24C     -0.731
 3         T30S      0.036
 4         F47D     -0.852
 5         A13T     -0.064
 6         T30F     -0.396
 7          R3Y      0.026
 8          E7S      0.191
 9         T30N      0.212
10         C21Y     -0.506
11          E7I     -0.116
12         L38K     -0.927
13          S9N     -0.198
14         K53Y     -0.545
15         E39W     -0.943
16          I6E     -0.091
17         L36W     -0.545
18         G12N     -0.153
19         C48M     -0.052
20         H17K     -0.364
21         C21D     -0.062
22         Q27S     -0.079
